tested system: Adenosine deaminase (Bos taurus)
Sequence (P56658 whole entry): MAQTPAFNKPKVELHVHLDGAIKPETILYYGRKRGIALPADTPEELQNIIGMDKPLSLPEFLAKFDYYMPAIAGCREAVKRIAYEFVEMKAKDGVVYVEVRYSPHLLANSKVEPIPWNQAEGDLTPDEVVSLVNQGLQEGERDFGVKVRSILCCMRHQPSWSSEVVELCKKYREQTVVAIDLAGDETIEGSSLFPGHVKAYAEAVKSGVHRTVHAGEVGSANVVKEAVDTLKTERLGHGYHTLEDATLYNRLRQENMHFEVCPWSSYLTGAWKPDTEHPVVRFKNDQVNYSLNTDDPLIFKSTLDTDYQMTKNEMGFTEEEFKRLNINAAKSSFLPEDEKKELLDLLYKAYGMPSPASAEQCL
pKi: −log10 of the molar value.
Tick True if pKi is 8 or greater. Tick False if pKi is less than 8.

{"compound structure": "O=C(NCc1ccccc1)Nc1ccc(Cn2cc3c(=O)[nH]cnc3n2)cc1", "class": "False"}
{"compound structure": "O=C(Nc1ccc(Cc2ccccc2)cc1)Nc1ccc(Cn2cc3c(=O)[nH]cnc3n2)cc1", "class": "False"}
{"compound structure": "O=C(Cc1ccccc1)Nc1ccc(Cn2cc3c(=O)[nH]cnc3n2)cc1", "class": "False"}

## Input Threshold query (pKi >= 8) on "O=C(Nc1ccc(Cn2cc3c(=O)[nH]cnc3n2)cc1)c1ccc(C(F)(F)F)cc1"
## Output True

---

Target sequence: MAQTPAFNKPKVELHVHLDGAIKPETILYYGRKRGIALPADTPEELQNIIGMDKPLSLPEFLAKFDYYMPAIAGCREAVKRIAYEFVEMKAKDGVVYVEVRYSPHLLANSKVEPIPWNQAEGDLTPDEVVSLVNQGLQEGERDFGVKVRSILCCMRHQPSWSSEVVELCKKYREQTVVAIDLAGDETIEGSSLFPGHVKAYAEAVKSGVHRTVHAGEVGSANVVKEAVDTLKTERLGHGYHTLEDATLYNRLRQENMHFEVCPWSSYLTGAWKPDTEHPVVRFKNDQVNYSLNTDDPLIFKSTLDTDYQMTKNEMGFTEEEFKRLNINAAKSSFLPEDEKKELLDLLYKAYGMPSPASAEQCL
measured property: pKi
Answers are plain numbers, as −log10 of the molar value.

Before answering, review these 2 worked examples.
{"compound structure": "O=C(Nc1ccc(Cn2cc3c(=O)[nH]cnc3n2)cc1)c1ccc(F)cc1", "measured property": "pKi", "measurement": 9.02}
{"compound structure": "O=C(Nc1ccc(F)cc1)Nc1ccc(Cn2cc3c(=O)[nH]cnc3n2)cc1", "measured property": "pKi", "measurement": 8.94}

## Input Item under review: "COc1ccc(C(=O)Nc2ccc(Cn3cc4c(=O)[nH]cnc4n3)cc2)cc1" . Reported pKi?
## Output 7.81
